// reported pIC50 per item
System: PC-3
Assay: Anticancer activity against human PC-3 cells assessed as inhibition of cell growth incubated for 48 hrs by MTT assay
Assay type: functional, cell-based
Conditions: PC-3, 48 h
Note on pIC50: it is the negative log10 of concentration, concentration in mol/L.

Compound	pIC50
COC(=O)CN(C(=O)C(C)C)c1ccc([N+](=O)[O-])c(C(F)(F)F)c1	4.72

pIC50 reported for this compound `CCCCCCCCCCCCOc1cc(OCCCCCCCCCCCC)cc(C(=O)NCCNC(=O)CN(C(=O)C(C)C)c2ccc([N+](=O)[O-])c(C(F)(F)F)c2)c1` : 4.88

Note to self: pIC50 recorded for `CC(C)C(=O)N(CC(=O)NCCN)c1ccc([N+](=O)[O-])c(C(F)(F)F)c1` was 4.70

The compound listed as CC(C)C(=O)Nc1ccc([N+](=O)[O-])c(C(F)(F)F)c1 [FLUTAMIDE] shows pIC50 equal to 4.69

Entry `CCCCCCCCCCCCOc1cc(OCCCCCCCCCCCC)cc(C(=O)NCCN(CCC(=O)NCCNC(=O)CN(C(=O)C(C)C)c2ccc([N+](=O)[O-])c(C(F)(F)F)c2)CCC(=O)NCCNC(=O)CN(C(=O)C(C)C)c2ccc([N+](=O)[O-])c(C(F)(F)F)c2)c1` — recorded pIC50 = 5.15

====

System: K562
Assay: Anticancer activity against human K562 cells assessed as inhibition of cell growth incubated for 48 hrs by MTT assay
Assay type: functional, cell-based
Conditions: K562, 48 h
Reported IC50 by item:

The examples below pair each entry with its known result.
Structure as smiles	Reading
CCCCCCCCCCCCOc1cc(OCCCCCCCCCCCC)cc(C(=O)OC)c1	> 1 mM
CCCCCCCCCCCCOc1cc(OCCCCCCCCCCCC)cc(C(=O)NCCN)c1	> 1 mM

In the following, a different molecule is considered.
IC50 for K562 with input `CCCCCCCCCCCCOc1cc(OCCCCCCCCCCCC)cc(C(=O)NCCN(CCC(=O)OC)CCC(=O)OC)c1` equals > 1 mM

====

System: PC-3
Experiment: Anticancer activity against human PC-3 cells assessed as inhibition of cell growth incubated for 48 hrs by MTT assay
Assay type: functional, cell-based
Conditions: PC-3, 48 h
Experimental endpoint: IC50

// below: answered molecules
Structure as smiles	Reading
CCCCCCCCCCCCOc1cc(OCCCCCCCCCCCC)cc(C(=O)OC)c1	> 1000 µM
CCCCCCCCCCCCOc1cc(OCCCCCCCCCCCC)cc(C(=O)NCCN(CCC(=O)OC)CCC(=O)OC)c1	> 1000 µM

Pending molecule:
Record `CCCCCCCCCCCCOc1cc(OCCCCCCCCCCCC)cc(C(=O)NCCN)c1` . Reported IC50: > 1000 µM
